assay-system: Neuronal acetylcholine receptor subunit alpha-7 (Homo sapiens, UniProt P36544)
Sequence (P36544 whole entry): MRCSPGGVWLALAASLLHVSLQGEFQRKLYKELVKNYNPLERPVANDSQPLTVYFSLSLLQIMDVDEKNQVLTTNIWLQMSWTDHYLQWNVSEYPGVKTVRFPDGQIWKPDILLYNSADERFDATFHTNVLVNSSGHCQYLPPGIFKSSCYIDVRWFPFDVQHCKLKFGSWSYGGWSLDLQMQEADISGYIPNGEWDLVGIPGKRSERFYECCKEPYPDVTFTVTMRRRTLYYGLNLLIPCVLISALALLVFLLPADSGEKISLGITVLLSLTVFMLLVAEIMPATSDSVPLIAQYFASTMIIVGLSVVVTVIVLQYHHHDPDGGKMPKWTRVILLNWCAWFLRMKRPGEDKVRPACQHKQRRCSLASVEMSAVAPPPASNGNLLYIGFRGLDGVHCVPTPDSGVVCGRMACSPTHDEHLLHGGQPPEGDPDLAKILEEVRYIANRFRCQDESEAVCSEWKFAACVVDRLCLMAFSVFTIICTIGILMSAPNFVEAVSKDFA
assay-overview: Displacement of [125I]alpha-bungarotoxin from human alpha7 nAChR overexpressed in human SH-SY5Y cells after 120 mins by liquid scintillation spectrometric analysis
Reported pKi is given for each of the following compounds.
# log scale: pKi equals minus log10 of the concentration in mol/L

CN1CCC[C@H]1COC(=O)c1ccccc1 | 5.17
CN1CCC[C@H]1COC(=O)c1ccc(Cl)nc1 | 4.53
CN1CCC[C@H]1COC(=O)c1ccc(OCc2ccccc2)cc1 | 5.96
CN1CCC[C@H]1COC(=O)c1ccc(Cl)cc1 | 5.35
CN1CCC[C@H]1COC(=O)c1cnc2ccccc2c1 | 4.31

Entry under test: CN1CCC[C@H]1COC(=O)c1ccc(Br)cc1 . Its pKi was 4.98

Lab book: pKi of CN1CCC[C@H]1COC(=O)c1cccc([N+](=O)[O-])c1 noted as 3.63

For CN1CCC[C@H]1COC(=O)c1ccc(OCc2ccccc2)nc1 the compound record lists pKi as 4.53
